test: Exposure and tissue distribution after 14 days repeat dosing, mouse; format: in vivo; conditions: mouse, in vivo, po; Female mice, 90 mg/kg p.o. 14 days, 2 h post last dose; read-out: Liver/plasma ratio
readout.name: Kp at 2 h
# output: bare number, no unit

## Task Any idea what its Kp at 2 h is? The molecule is O=c1ccc2ccc(O[C@@H]3C[C@H]4CC[C@@H](C3)N4)cc2o1 [Compound (I)]
## Result 16

----------
assay: Linearity after single s.c. dose in rat; type: in vivo; details: Wistar, plasma, sc; rat, 5 mg/kg s.c.; read-out: T½ (converted)
readout.name: half-life
Please answer using the number first and the unit second.

## Task Any idea what its half-life is? The compound is O=c1ccc2ccc(O[C@@H]3C[C@H]4CC[C@@H](C3)N4)cc2o1
## Result 46.2 min

----------
assay: Bioavailability study in dog; type: in vivo; conditions: plasma; Female beagle dog
readout.name: clearance (L/h/kg)
Quick note: give the figure in L/h/kg, leave out the unit.

## Task Any idea what its clearance is? The compound is O=c1ccc2ccc(O[C@@H]3C[C@H]4CC[C@@H](C3)N4)cc2o1 [Compound (I)]
## Result 2.6

----------
assay: Bioavailability study in mouse; type: in vivo; details: female, NMRI, plasma, po, 10 mg/kg p.o.
readout.name: Tmax (min)
Quick note: give the figure in min, leave out the unit.

## Task Any idea what its Tmax is? The compound is O=c1ccc2ccc(O[C@@H]3C[C@H]4CC[C@@H](C3)N4)cc2o1
## Result 30

----------
tested on: plasma protein; assay: Plasma protein binding by equilibrium dialysis, rat; assay type: in vitro ADME; settings: 813 ng/ml
readout.name: fraction unbound at 813 ng/ml
# output: bare number, no unit

## Task State its fraction unbound at 813 ng/ml on plasma protein: O=c1ccc2ccc(O[C@@H]3C[C@H]4CC[C@@H](C3)N4)cc2o1
## Result 0.582

----------
test: Exposure and tissue distribution after 14 days repeat dosing, rat; type: in vivo; details: Wistar, rat, brain, sc; Male rats, 5 mg/kg s.c. 14 days, 2 h post last dose; read-out: Brain concentration
readout.name: concentration at 2 h (ng/g)
Quick note: give the figure in ng/g, leave out the unit.

## Task Any idea what its concentration at 2 h is? The compound is O=c1ccc2ccc(O[C@@H]3C[C@H]4CC[C@@H](C3)N4)cc2o1 [Compound (I)]
## Result 519

----------
assay: Bioavailability study in mouse; format: in vivo; settings: female, NMRI, plasma, iv, 10 mg/kg, 10 mg/kg i.v., read-out: T½ i.v. (converted)
readout.name: half-life

## Task Any idea what its half-life is? The compound is O=c1ccc2ccc(O[C@@H]3C[C@H]4CC[C@@H](C3)N4)cc2o1 [Compound (I)]
## Result 36 min

----------
target: CYP 2D6 (Homo sapiens, UniProt P10635); assay: CYP450 inhibition, cocktail of selective substrates, 2D6; type: in vitro ADME; settings: CYP 2D6, Bufuralol to 1′-hydroxybufuralol; read-out: IC50 of compound (I)
Sequence (P10635 whole entry): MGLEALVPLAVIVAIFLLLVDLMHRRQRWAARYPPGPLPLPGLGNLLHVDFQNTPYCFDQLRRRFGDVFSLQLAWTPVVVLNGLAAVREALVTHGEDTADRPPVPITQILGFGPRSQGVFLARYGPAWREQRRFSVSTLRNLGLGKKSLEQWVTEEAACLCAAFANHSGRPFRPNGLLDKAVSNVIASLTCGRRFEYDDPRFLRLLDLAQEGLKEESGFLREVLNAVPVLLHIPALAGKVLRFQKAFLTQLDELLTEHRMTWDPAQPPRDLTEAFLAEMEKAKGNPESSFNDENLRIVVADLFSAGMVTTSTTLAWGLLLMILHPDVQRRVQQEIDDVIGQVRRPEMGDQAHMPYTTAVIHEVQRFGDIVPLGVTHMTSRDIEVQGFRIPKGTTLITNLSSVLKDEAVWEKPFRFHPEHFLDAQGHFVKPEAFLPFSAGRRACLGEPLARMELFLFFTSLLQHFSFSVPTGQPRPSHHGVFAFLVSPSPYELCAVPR
readout.name: pIC50
// pIC50 is dimensionless: -log10 of concentration (M)

## Task Any idea what its pIC50 is? The compound is O=c1ccc2ccc(O[C@@H]3C[C@H]4CC[C@@H](C3)N4)cc2o1 [Compound (I)]
## Result 4.36

Reference for the values: patent US20220288052A1
